All values here come from ChEMBL document CHEMBL4689842.

Test system: Fibroblast
Protocol text: Multiplex assay against human fibroblast
Assay type: toxicity, cell-based
Recorded conditions: 48 h, 10 µM, compound concentration 10 uM, replicate 1
Property: Population Normal (%)

INSERT INTO measurements (compound, unit_annotation, meas_value) VALUES
  ('O=C1NCN(c2ccccc2)C12CCN(CCCOc1ccc(F)cc1)CC2 [SPIRAMIDE]', '%', 77),
  ('CN1CCCC(n2nc(Cc3ccc(Cl)cc3)c3ccccc3c2=O)CC1.Cl (stereo unspecified) [AZELASTINE HYDROCHLORIDE]', '%', 69),
  ('OC1(c2ccc(Cl)cc2)CCN(Cc2c[nH]c3ccccc23)CC1', '%', 59),
  ('CN1CCC[C@@H]1CCO[C@](C)(c1ccccc1)c1ccc(Cl)cc1.O=C(O)/C=C/C(=O)O [CLEMASTINE FUMARATE]', '%', 75),
  ('CN(C)CC#Cc1ccc(OCCCc2sc(N3CCc4cccc(C(=O)Nc5nc6ccccc6s5)c4C3)nc2C(=O)O)c(F)c1 [A-1155463]', '%', 89),
  ('COc1cc2nccc(Oc3ccc(NC(=O)Nc4cc(C)on4)c(Cl)c3)c2cc1OC.O', '%', 77),
  ('C[C@@H](NCCCc1cccc(C(F)(F)F)c1)c1cccc2ccccc12.Cl [CINACALCET HYDROCHLORIDE]', '%', 86),
  ('CN(C)C(=O)N[C@H]1CC[C@H](CCN2CCN(c3cccc(Cl)c3Cl)CC2)CC1.Cl [CARIPRAZINE HYDROCHLORIDE]', '%', 68),
  ('C[C@@]1(C(=O)Nc2ccc(F)nc2)CCCN1c1nc(Nc2cc(C3CC3)n[nH]2)c2cccn2n1 [BMS-754807]', '%', 72),
  ('Cc1csc2c(N[C@@H](C)CN3CCN(S(=O)(=O)c4ccc(Cl)c(Cl)c4)CC3)ncnc12', '%', 59),
  ('CC(C)NCC(O)COc1ccc(CCOCC2CC2)cc1.Cl (stereo unspecified) [BETAXOLOL HYDROCHLORIDE]', '%', 75),
  ('CN1CCN(c2ccc(OC(F)(F)F)c(Nc3ncc4c(n3)-c3c(c(C(N)=O)nn3CCO)CC4)c2)CC1 [ONVANSERTIB]', '%', 76),
  ('CC[C@H](C)C(=O)O[C@H]1C[C@@H](C)C=C2C=C[C@H](C)[C@H](CC[C@@H]3C[C@@H](O)CC(=O)O3)[C@H]21 [LOVASTATIN]', '%', 80),
  ('Cl.N#Cc1ccc2[nH]cc(CCCCN3CCN(c4ccc5oc(C(N)=O)cc5c4)CC3)c2c1 [VILAZODONE HYDROCHLORIDE]', '%', 61),
  ('C=CC(=O)Nc1ccc2ncnc(Nc3ccc(OCc4cccc(F)c4)c(Cl)c3)c2c1.Cc1ccc(S(=O)(=O)O)cc1', '%', 81),
  ('CN(C)C(=O)/C(C#N)=C/c1ccc(-c2nc3cnc4[nH]ccc4c3n2C2CCCCC2)o1', '%', 37);

* * *

The following compounds are listed with their measured Total Cell Count values.
Test system: U2OS
Protocol text: Multiplex assay against U2OS
Type: toxicity, cell-based
Recorded conditions: human, 12 h, 10 µM, compound concentration 10 uM, replicate 1
Property: Total Cell Count

INSERT INTO measurements (smiles_str, property, meas_value) VALUES
  ('Cc1[nH]c(/C=C2\C(=O)Nc3ccc(S(=O)(=O)N(C)c4cccc(Cl)c4)cc32)c(C)c1C(=O)N1CCN(C)CC1', 'Total Cell Count', 147),
  ('Cn1cc(-c2[nH]c3cc(NC(=O)[C@H](N)C4CCCCC4)cc4c3c2C=NNC4=O)cn1', 'Total Cell Count', 247),
  ('CC[C@H](C)C(=O)O[C@H]1C[C@@H](C)C=C2C=C[C@H](C)[C@H](CC[C@@H]3C[C@@H](O)CC(=O)O3)[C@H]21', 'Total Cell Count', 163),
  ('Cc1nc(Nc2n[nH]c3c2CN(C(=O)N[C@H](CN(C)C)c2ccccc2)C3(C)C)c2sccc2n1', 'Total Cell Count', 173),
  ('O=C(NCCCC1CCCCC1)c1ccc(CNC(=O)c2cnn(-c3ccccc3)c2C(F)(F)F)cc1', 'Total Cell Count', '197 [middle of 4 runs]');

* * *

Test system: HEK-293T
Protocol text: Multiplex assay against HEK293T
Type: toxicity, cell-based
Recorded conditions: human, 24 h, 1 µM, compound concentration 1 uM, replicate 2
Property: Population Pyknosed Nuclei (%)

INSERT INTO results (compound, target_under_test, property, meas_value) VALUES
  ('CCN(CC)CCCCNc1ncc2cc(-c3cc(OC)cc(OC)c3)c(NC(=O)NC(C)(C)C)nc2n1 [PD-173074]', 'HEK-293T', 'Population Pyknosed Nuclei (%)', 6),
  ('CNc1nc(NCc2ccc(NS(C)(=O)=O)cc2Cl)cc(-c2ccccn2)n1', 'HEK-293T', 'Population Pyknosed Nuclei (%)', 37),
  ('Cc1nc(-c2ccc(-c3ccc(C(=O)N4CCc5cc6c(cc54)C4(CCN(C)CC4)CO6)cc3)c(C)c2)no1 [SB-224289]', 'HEK-293T', 'Population Pyknosed Nuclei (%)', 48),
  ('C=CC(=O)Nc1cc2c(Nc3ccc(F)c(Cl)c3)ncnc2cc1OCCCN1CCOCC1.Cl.Cl [CANERTINIB DIHYDROCHLORIDE]', 'HEK-293T', 'Population Pyknosed Nuclei (%)', 13);

* * *

Test system: U2OS
Protocol text: Multiplex assay against U2OS
Assay type: toxicity, cell-based
Recorded conditions: human, 12 h, 10 µM, compound concentration 10 uM, replicate 1
Label key: yes means Population Tubulin-Different-Phenotype (%) under 80%; no means Population Tubulin-Different-Phenotype (%) of 80% or more.

INSERT INTO measurements (smiles_str, target_under_test, assigned_label) VALUES
  ('CN1CCN(CCOc2cc(OC3CCOCC3)c3c(Nc4c(Cl)ccc5c4OCO5)ncnc3c2)CC1', 'U2OS', 'no'),
  ('c1cn2cc(-c3ccc4cn[nH]c4c3)nc(Nc3ccc(N4CCOCC4)cc3)c2n1', 'U2OS', 'yes'),
  ('COc1ncc(-c2ccc3nccc(-c4ccnnc4)c3c2)cc1NS(=O)(=O)c1ccc(F)cc1F', 'U2OS', 'yes'),
  ('OC1(c2ccc(Cl)cc2)CCN(Cc2c[nH]c3ccccc23)CC1', 'U2OS', 'no'),
  ('CC(C)(O)CNc1ncc(-c2ccnc(Nc3ccnc(Cl)c3)n2)c(CC2CC2)n1', 'U2OS', 'no'),
  ('CN(C)C(=O)/C(C#N)=C/c1ccc(-c2nc3cnc4[nH]ccc4c3n2C2CCCCC2)o1', 'U2OS', 'yes'),
  ('Cc1cc(C)cc(-c2cnc3cc(Cl)c(-c4cccc(O)c4)cc3c2OCCCN)c1', 'U2OS', 'yes');

* * *

System: U2OS
Protocol text: Multiplex assay against U2OS
Format: toxicity, cell-based
Recorded conditions: human, 24 h, 1 µM, compound concentration 1 uM, replicate 2
Property: Population Pyknosed Nuclei (%)

INSERT INTO results (compound, unit_annotation, meas_value) VALUES
  ('C[C@@]1(C(=O)Nc2ccc(F)nc2)CCCN1c1nc(Nc2cc(C3CC3)n[nH]2)c2cccn2n1', '%', 10),
  ('COc1ncc(-c2ccc3nccc(-c4ccnnc4)c3c2)cc1NS(=O)(=O)c1ccc(F)cc1F', '%', 16),
  ('C=CC(=O)Nc1cc2c(Nc3ccc(F)c(Cl)c3)ncnc2cc1OCCCN1CCOCC1.Cl.Cl [CANERTINIB DIHYDROCHLORIDE]', '%', 79),
  ('CN(C)C(=O)/C(C#N)=C/c1ccc(-c2nc3cnc4[nH]ccc4c3n2C2CCCCC2)o1', '%', 9),
  ('CN1CCC[C@@H]1CCO[C@](C)(c1ccccc1)c1ccc(Cl)cc1.O=C(O)/C=C/C(=O)O [CLEMASTINE FUMARATE]', '%', 15),
  ('Cn1cc(-c2[nH]c3cc(NC(=O)[C@H](N)C4CCCCC4)cc4c3c2C=NNC4=O)cn1', '%', 15),
  ('OC1(c2ccc(Cl)cc2)CCN(Cc2c[nH]c3ccccc23)CC1', '%', 6),
  ('C[C@@H](NCCCc1cccc(C(F)(F)F)c1)c1cccc2ccccc12.Cl [CINACALCET HYDROCHLORIDE]', '%', 22),
  ('CN1CCN(CCOc2cc(OC3CCOCC3)c3c(Nc4c(Cl)ccc5c4OCO5)ncnc3c2)CC1', '%', 18),
  ('COc1cc(-n2cnc3cc(-c4ccc(Cl)cc4)sc3c2=O)ccc1OCCN1CCCC1', '%', 12),
  ('Cc1[nH]c(/C=C2\C(=O)Nc3ccc(S(=O)(=O)N(C)c4cccc(Cl)c4)cc32)c(C)c1C(=O)N1CCN(C)CC1', '%', 9),
  ('CC[C@H](C)C(=O)O[C@H]1C[C@@H](C)C=C2C=C[C@H](C)[C@H](CC[C@@H]3C[C@@H](O)CC(=O)O3)[C@H]21', '%', 7),
  ('CC(C)NCC(O)COc1ccc(CCOCC2CC2)cc1.Cl (stereo unspecified) [BETAXOLOL HYDROCHLORIDE]', '%', 10),
  ('Cl.N#Cc1ccc2[nH]cc(CCCCN3CCN(c4ccc5oc(C(N)=O)cc5c4)CC3)c2c1 [VILAZODONE HYDROCHLORIDE]', '%', 6),
  ('CN(C)C(=O)N[C@H]1CC[C@H](CCN2CCN(c3cccc(Cl)c3Cl)CC2)CC1.Cl [CARIPRAZINE HYDROCHLORIDE]', '%', 9),
  ('Cc1csc2c(N[C@@H](C)CN3CCN(S(=O)(=O)c4ccc(Cl)c(Cl)c4)CC3)ncnc12', '%', 14);
